Would you kindly list koff for each of these binders?
Biological target: T1, recombinant human coagulation factor IXa (human, UniProt P00740 134-191; P00740 227-461)
T1 construct: range 134-191;range 227-461; Fluorescently labelled with Dylight-647 for the NANEX runs; also called FIXa
T1 sequence (P00740 134-191 limits assumed, form in doubt, chain 1 of 2): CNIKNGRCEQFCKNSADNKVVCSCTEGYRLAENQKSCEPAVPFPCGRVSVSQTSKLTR
T1 sequence (P00740 227-461 limits assumed, form in doubt, chain 2 of 2): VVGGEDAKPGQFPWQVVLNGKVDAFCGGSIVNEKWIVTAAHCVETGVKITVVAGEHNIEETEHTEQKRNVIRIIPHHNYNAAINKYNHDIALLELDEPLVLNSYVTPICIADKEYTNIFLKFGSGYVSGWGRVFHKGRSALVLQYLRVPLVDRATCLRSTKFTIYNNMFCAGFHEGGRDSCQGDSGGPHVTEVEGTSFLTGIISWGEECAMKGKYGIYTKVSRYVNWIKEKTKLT
Test: BLI
Entry rule: numbers only, all in s⁻¹.

[Q] I am curious: what koff value has been reported for CA11138 FIXa-specific Nb (C-term. 6xHis+EPEA) (VHH, also called trapper1) VHH: QVQLVESGGGLVQAGGSLRLSCAASERTASNYVMGWFRQAPGKEREFVAFISRTGGSTYYADSVKGRFTVSRDGAKNTVYLQMNTMKPEDTAVYYCAASLYIRNYYEGTNYAYWGQGTQVTVSS ?
[A] 0.0042

[Q] I am curious: what koff value has been reported for CA10309 FIXa-specific Nb (Stripper2; C-term. 6xHis+EPEA) (VHH) VHH: QVQLVESGGGLVQAGGSLRLSCATSGIGFSIYSMGWYRQAPGKERELVASIAGNEDKDYVESVKGRFTISRDYAKNTLYLEMSGLKFEDTAMYYCAAGLRRGVSLTPYYWGQGTQVTVSS ?
[A] 0.00073

[Q] I am curious: what koff value has been reported for CA10304 FIXa-specific Nb (C-term. 6xHis+EPEA) (VHH, also called stripper1) VHH: QVQLVESGGGLVQAGGSLKLSCAASERTFSGTVMGWFRQPPGKEREFVGDISWSGSITDYADSVKGRFTISRDNAKNTMYLQMDSLKPEDTAVYYCAARVGGYSYIMSRSPADFGSWGQGTQVTVSS ?
[A] 0.0035

[Q] I am curious: what koff value has been reported for CA10502 FIXa-specific Nb (Trapper2; C-term. 6xHis+EPEA) (VHH) VHH: QVQLQESGGGLVQAGGSLRLSCAASGRTSRVYGVGWFRQAPGKERELVASISTSGSVTNVADSVKGRFTISRDNAKTTVYLQMNSLKPEDTALYYCAADPHGRPYGWGQGTQVTVSS ?
[A] 0.004
